Data origin: patent US6737383B1

- Test system: wheat
- methodNotes: Test B pre/postemergence wheat
- Type: in vivo, Triticum aestivum
- settings: Rate 125 g/ha; Preemergence; scale of 0 to 10 where 0 is no effect and 10 is complete control
reportedMetric: Wheat plant response rating

Below are worked cases with known answers.
CC(C)N(C(=O)n1oc(=O)n(CCCCF)c1=O)c1ccc(F)cc1 ... 2
CC(C)N(C(=O)n1oc(=O)n(CCC2OCCO2)c1=O)c1ccc(F)cc1 ... 5
CC(C)N(C(=O)n1oc(=O)n(Cc2ccccn2)c1=O)c1ccc(F)cc1 ... 0
Cc1ccccc1-n1c(=O)on(C(=O)N(c2ccc(Oc3ccccc3)cc2)C(C)C)c1=O ... 0

As a next step, examine the compound that follows.
Problem: Name the reported Wheat plant response rating value associated with the compound CC(C)N(C(=O)n1oc(=O)n(COCc2ccccc2)c1=O)c1ccc(F)cc1
Solution: 0
